- test_system: T1, recombinant human transferrin receptor 1 (human, UniProt P02786 89-760)
- T1 construct: Recombinant protein used in ELISA and SPR; also called hTfR1; huTfR1
- T1 sequence (P02786 89-760 limits assumed): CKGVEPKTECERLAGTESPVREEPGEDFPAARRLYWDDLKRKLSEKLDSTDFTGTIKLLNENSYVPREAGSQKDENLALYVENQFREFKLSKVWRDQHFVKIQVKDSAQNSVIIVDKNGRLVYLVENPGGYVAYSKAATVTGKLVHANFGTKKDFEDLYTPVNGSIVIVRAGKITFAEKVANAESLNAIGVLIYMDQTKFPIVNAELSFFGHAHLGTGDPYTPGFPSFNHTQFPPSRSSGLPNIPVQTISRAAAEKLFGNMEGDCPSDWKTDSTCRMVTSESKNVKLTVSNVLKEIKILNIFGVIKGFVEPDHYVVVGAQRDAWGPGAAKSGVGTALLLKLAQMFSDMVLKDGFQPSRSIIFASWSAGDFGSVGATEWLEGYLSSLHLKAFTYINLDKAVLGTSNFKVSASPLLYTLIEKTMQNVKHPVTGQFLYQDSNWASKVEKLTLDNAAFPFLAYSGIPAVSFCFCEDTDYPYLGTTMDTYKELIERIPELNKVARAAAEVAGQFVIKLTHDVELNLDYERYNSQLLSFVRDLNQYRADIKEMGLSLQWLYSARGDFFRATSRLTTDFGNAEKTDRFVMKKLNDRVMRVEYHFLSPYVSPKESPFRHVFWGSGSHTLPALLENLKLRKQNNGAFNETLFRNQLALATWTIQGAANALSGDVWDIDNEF
- measurement_protocol: ELISA, plate-coated human TfR1, Fab-ASO300 conjugate; printed as 'Conjugate binding affinity ELISA'
# EC50 values compiled below
result_type: EC50 (nM)

1) 5H12 (VH5-C33Y/Vk3) Fab conjugated to DMPK-targeting oligonucleotide ASO300 (Fab, V domains shown, Fab covalently conjugated to ASO300; also called 5H12 (VH5-C33Y/Vk3) conjugate) VH: QVQLVQSGAEVKKPGASVKVSCKASGYSFTDYYINWVRQAPGQGLEWMGWIYPGSGNTRYSERFKGRVTITRDTSASTAYMELSSLRSEDTAVYYCAREDYYPYHGMDYWGQGTLVTVSS VL: DIVLTQSPDSLAVSLGERATINCRASESVDGYDNSFMHWYQQKPGQPPKLLIFRASNLESGVPDRFSGSGSRTDFTLTISSLQAEDVAVYYCQQSSEDPWTFGQGTKLEIKR	33.4
2) 3A4 (VH3-N54T/Vk4) Fab conjugated to DMPK-targeting oligonucleotide ASO300 (Fab, V domains shown, Fab covalently conjugated to ASO300; also called 3A4 (VH3-N54T/Vk4) conjugate) VH: EVQLVQSGSELKKPGASVKVSCTASGFNIKDDYMYWVRQPPGKGLEWIGWIDPETGDTEYASKFQDRVTVTADTSTNTAYMELSSLRSEDTAVYYCTLWLRRGLDYWGQGTLVTVSS VL: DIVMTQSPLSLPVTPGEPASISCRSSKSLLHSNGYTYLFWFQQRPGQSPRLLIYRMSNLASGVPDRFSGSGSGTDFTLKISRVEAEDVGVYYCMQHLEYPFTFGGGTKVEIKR	2.8
3) 3M12 (VH3/Vk2) Fab conjugated to DMPK-targeting oligonucleotide ASO300 (Fab, V domains shown, Fab covalently conjugated to antisense oligonucleotide ASO300 (linker of Formula (C)); also called 3M12 (VH3/Vk2) conjugate; DMPK oligo conjugate) VH: QVQLQESGPGLVKPSQTLSLTCSVTGYSITSGYYWNWIRQPPGKGLEWMGYITFDGANNYNPSLKNRVSISRDTSKNQFSLKLSSVTAEDTATYYCTRSSYDYDVLDYWGQGTTVTVSS VL: DIQMTQSPSSLSASVGDRVTITCRASQDISNFLNWYQQKPGQPVKLLIYYTSRLHSGVPSRFSGSGSGTDFTLTISSLQPEDFATYFCQQGHTLPYTFGQGTKLEIKR	2.2
